Tested on: Phytophthora infestans
Assay type: in vivo
Stated Conditions: preventive spray on tomato seedlings; 100 = 100% disease control, 0 = no control; concentration not marked in table
Reported Metric: Test D disease control rating (potato and tomato late blight) (%)

INSERT INTO results (entry_smiles, endpoint_result) VALUES
  ('O=C(NCc1ncc(C(F)(F)F)cc1Cl)c1cccnc1Nc1cccc(C(F)(F)F)c1', 32),
  ('COc1nc(C(F)(F)F)ccc1C(=O)NCc1ncc(C(F)(F)F)cc1Cl', 7),
  ('Cc1ncccc1C(=O)NCc1ccc(Oc2cccc(C(F)(F)F)c2)nc1', 71);

====

System: Puccinia recondita
Test Description: TEST B: preventive spray on wheat seedlings, wheat leaf rust, disease rating
Type: in vivo
Stated Conditions: 100 = 100% disease control, 0 = no control, concentration not marked in table
Reported Metric: Test B disease control rating (wheat leaf rust) (%)

INSERT INTO results (compound, target_or_test_system, result_unit, endpoint_result) VALUES
  ('Cc1ccc(C(=O)NCc2ncc(C(F)(F)F)cc2Cl)c(Cl)n1', 'Puccinia recondita', '%', 19),
  ('CC(NC(=O)c1c(Cl)ccnc1Cl)c1ncc(Br)cc1Cl (racemic)', 'Puccinia recondita', '%', 19),
  ('O=C(NCc1ncc(C(F)(F)F)cc1Cl)c1cccnc1Nc1cccc(C(F)(F)F)c1', 'Puccinia recondita', '%', 0),
  ('COc1cc(C(=O)NCc2ncc(C(F)(F)F)cc2Cl)cc(Cl)n1', 'Puccinia recondita', '%', 44),
  ('O=C(NCc1ncc(C(F)(F)F)cc1Cl)c1ccc(C(F)(F)F)nc1-c1ccccc1', 'Puccinia recondita', '%', 0),
  ('O=C(NCc1ncc(C(F)(F)F)cc1Cl)c1cccnc1Sc1ccccc1', 'Puccinia recondita', '%', 9),
  ('O=C(NCc1ncc(C(F)(F)F)cc1Cl)c1cccnc1Oc1ccccc1', 'Puccinia recondita', '%', 38),
  ('O=C(NCc1ncc(C(F)(F)F)cc1Cl)c1cccnc1Cl', 'Puccinia recondita', '%', 19),
  ('CC(NC(=O)c1c(Cl)ccnc1Cl)c1ncc(Cl)cc1Cl (racemic)', 'Puccinia recondita', '%', 38),
  ('Cc1nc(Cl)ccc1C(=O)NCc1ncc(C(F)(F)F)cc1Cl', 'Puccinia recondita', '%', 9),
  ('COCc1nc(C(F)(F)F)ccc1C(=O)NCc1ncc(C(F)(F)F)cc1Cl', 'Puccinia recondita', '%', 9),
  ('COc1nc(C(F)(F)F)ccc1C(=O)NCc1ncc(C(F)(F)F)cc1Cl', 'Puccinia recondita', '%', 0),
  ('O=C(NCc1ncc(C(F)(F)F)cc1Cl)c1cnc(Cl)c(Cl)c1', 'Puccinia recondita', '%', 0),
  ('O=C(NCc1ncc(C(F)(F)F)cc1Cl)c1ccc(C(F)(F)F)nc1Br', 'Puccinia recondita', '%', 9),
  ('Nc1ncccc1C(=O)NCc1ncc(C(F)(F)F)cc1Cl', 'Puccinia recondita', '%', 28),
  ('Cc1nc(C(F)(F)F)ccc1C(=O)NCc1ncc(C(F)(F)F)cc1Cl', 'Puccinia recondita', '%', 28),
  ('Cc1nc(C(F)(F)C(F)(F)F)ccc1C(=O)NCc1ncc(C(F)(F)F)cc1Cl', 'Puccinia recondita', '%', 68),
  ('O=C(NCc1ncc(C(F)(F)F)cc1Cl)c1cncc(C#Cc2ccccc2)c1', 'Puccinia recondita', '%', 0),
  ('O=C(NCc1ncc(C(F)(F)F)cc1Cl)c1c(Cl)cncc1Cl', 'Puccinia recondita', '%', 30);
